# test-name: Lipid nanoparticle size and polydispersity by dynamic light scattering (Malvern Zetasizer Nano ZS)
# Assay type: physicochemical
# assay-conditions: LNP of cationic lipid/DSPC/cholesterol/PEG-lipid 50:10:38.5:1.5 with mRNA
Threshold 70 nm: size (nm) strictly smaller gives rule met, otherwise rule not met.

- CCCCCCCCCCCCOCC(CN(CCCCCC)CCN(CCO)C1CCC1)OCCCCCCCCCCCC (stereo not drawn) [Compound 16]: rule not met
- CCCCCCCCCCCCOCC(CN(CCCCCC(=O)OCC(CCCCCC)CCCCCCCC)CCN(CCO)C1CCCCCC1)OCCCCCCCC (stereo not drawn) [Compound 37]: rule met
- CCCCC/C=C\C/C=C\CCCCCCCC(=O)OCC(CCCCN(CCO)C1CCCCC1)COC(=O)CC(CCCCCC)CCCCCCCC (stereo not drawn) [Compound 100]: rule met
- CCCCCCCCC(CCCCCC)COC(=O)CCOCC(CN(CCC)CCN(CCO)C1CCCCCC1)OCCC(=O)OCC(CCCCCC)CCCCCCCC (stereo not drawn) [Compound 106]: rule met

Query string: Given the entry CCCCC/C=C\C/C=C\CCCCCCCC(=O)OCC(CCCCN(CCO)C1CCCCCCC1)COC(=O)CC(CCCCCC)CCCCCCCC (stereo not drawn) [Compound 101] , would its reported size (nm) be below 70 nm?
Result string: rule met

Query string: Given the entry CCCCCCCCCCCCCCCC(=O)OCC(CCCCN(CCO)C1CCC1)COC(=O)CC(CCCCCC)CCCCCCCC (stereo not drawn) [Compound 98] , would its reported size (nm) be below 70 nm?
Result string: rule not met
